tested on: Rhesus monkey; experiment: Inhibition of capsaicin-induced increase in dermal blood flow in iv dosed rhesus monkey; type: functional, organism-based, Macaca mulatta; details: Macaca mulatta
ASSAY READOUT: EC50 (nM)
All answers are understood in nM, so give the number only.

Which measured EC50 value corresponds to O=C(N[C@@H]1CC[C@@H](c2cccc(F)c2F)CN(CC(F)(F)F)C1=O)N1CCC(n2c(=O)[nH]c3ncccc32)CC1 ?
120

----------
Here's what we have: Ki numbers for UniProtKB Q16602.
All answers are understood in nM, so give the number only.

>  <COMPOUND>
O=C1NCC(c2cccnc2)CC[C@H]1NC(=O)N1CCC(n2c(=O)[nH]c3ncccc32)CC1 (stereo not given in full)

>  <Ki (nM)>
9900

$$$$
>  <COMPOUND>
O=C(N[C@@H]1CC[C@@H](c2cccc(F)c2F)CN(CCN2CCOCC2)C1=O)N1CCC(n2c(=O)[nH]c3ncccc32)CC1

>  <Ki (nM)>
0.5

$$$$
>  <COMPOUND>
Cc1ccc(C2CC[C@@H](NC(=O)N3CCC(n4c(=O)[nH]c5ncccc54)CC3)C(=O)NC2)cc1 (stereo not given in full)

>  <Ki (nM)>
1100

$$$$
>  <COMPOUND>
O=C(N[C@@H]1CC[C@@H](c2cccc(F)c2F)CN(CC(F)(F)F)C1=O)N1CCC(n2c(=O)[nH]c3ncccc32)CC1

>  <Ki (nM)>
0.77

$$$$
>  <COMPOUND>
CCN1C[C@H](c2cccc(F)c2F)CC[C@@H](NC(=O)N2CCC(n3c(=O)[nH]c4ncccc43)CC2)C1=O

>  <Ki (nM)>
2.4

$$$$
>  <COMPOUND>
O=C1NCC(c2ccsc2)CC[C@H]1NC(=O)N1CCC(n2c(=O)[nH]c3ncccc32)CC1 (stereo not given in full)

>  <Ki (nM)>
470

$$$$
>  <COMPOUND>
O=C1NCC(Cc2ccccc2)CC[C@H]1NC(=O)N1CCC(n2c(=O)[nH]c3ncccc32)CC1 (stereo not given in full)

>  <Ki (nM)>
610

$$$$
>  <COMPOUND>
CN1C[C@H](c2cccc(F)c2F)CC[C@@H](NC(=O)N2CCC(n3c(=O)[nH]c4ncccc43)CC2)C1=O

>  <Ki (nM)>
2.7

$$$$

Field: Ki (UniProtKB Q16602). Entry: CC(C)C1CC[C@@H](NC(=O)N2CCC(n3c(=O)[nH]c4ncccc43)CC2)C(=O)NC1 (stereo not given in full)
470

Field: Ki (UniProtKB Q16602). Entry: O=C1NCC(c2cccc(F)c2)CC[C@H]1NC(=O)N1CCC(n2c(=O)[nH]c3ncccc32)CC1 (stereo not given in full)
93

----------
experiment: Oral bioavailability in rat at 10 mg/kg; type: ADME, organism-based; conditions: in vivo
Some molecules, each annotated with its measured bioavailability.

>  <SMILES CODE>
O=C(N[C@@H]1CC[C@@H](c2cccc(F)c2F)CN(CCF)C1=O)N1CCC(n2c(=O)[nH]c3ncccc32)CC1

>  <RESULT>
17%

$$$$
>  <SMILES CODE>
O=C(N[C@@H]1CC[C@@H](c2cccc(F)c2F)CN(CCN2CCOCC2)C1=O)N1CCC(n2c(=O)[nH]c3ncccc32)CC1

>  <RESULT>
2%

$$$$
>  <SMILES CODE>
O=C(N[C@@H]1CC[C@@H](c2ccccc2)CN(CC2CC2)C1=O)N1CCC(n2c(=O)[nH]c3ncccc32)CC1

>  <RESULT>
7%

$$$$
>  <SMILES CODE>
O=C1NC[C@H](c2ccccc2)CC[C@H]1NC(=O)N1CCC(n2c(=O)[nH]c3ncccc32)CC1

>  <RESULT>
5%

$$$$
>  <SMILES CODE>
O=C(N[C@@H]1CC[C@@H](c2cccc(F)c2F)CN(CC2CC2)C1=O)N1CCC(n2c(=O)[nH]c3ncccc32)CC1

>  <RESULT>
8%

$$$$
>  <SMILES CODE>
CSCCN1C[C@H](c2cccc(F)c2F)CC[C@@H](NC(=O)N2CCC(n3c(=O)[nH]c4ncccc43)CC2)C1=O

>  <RESULT>
1%

$$$$

Which measured bioavailability value corresponds to O=C(N[C@@H]1CC[C@@H](c2cccc(F)c2F)CN(CC(F)F)C1=O)N1CCC(n2c(=O)[nH]c3ncccc32)CC1 ?
25%

Which measured bioavailability value corresponds to O=C1NC[C@H](c2cccc(F)c2F)CC[C@H]1NC(=O)N1CCC(n2c(=O)[nH]c3ncccc32)CC1 ?
5%

Which measured bioavailability value corresponds to CCN1C[C@H](c2cccc(F)c2F)CC[C@@H](NC(=O)N2CCC(n3c(=O)[nH]c4ncccc43)CC2)C1=O ?
30%

Which measured bioavailability value corresponds to CN(C)CCN1C[C@H](c2cccc(F)c2F)CC[C@@H](NC(=O)N2CCC(n3c(=O)[nH]c4ncccc43)CC2)C1=O ?
2%

Which measured bioavailability value corresponds to O=C(N[C@@H]1CC[C@@H](c2cccc(F)c2F)CN(CCOC(F)(F)F)C1=O)N1CCC(n2c(=O)[nH]c3ncccc32)CC1 ?
3%

Which measured bioavailability value corresponds to CN1C[C@H](c2cccc(F)c2F)CC[C@@H](NC(=O)N2CCC(n3c(=O)[nH]c4ncccc43)CC2)C1=O ?
12%

Which measured bioavailability value corresponds to O=C(N[C@@H]1CC[C@@H](c2cccc(F)c2F)CN(CC(F)(F)F)C1=O)N1CCC(n2c(=O)[nH]c3ncccc32)CC1 ?
20%

Which measured bioavailability value corresponds to O=C(N[C@@H]1CC[C@@H](c2cccc(F)c2F)CN(CCO)C1=O)N1CCC(n2c(=O)[nH]c3ncccc32)CC1 ?
< 1%

Which measured bioavailability value corresponds to COCCN1C[C@H](c2cccc(F)c2F)CC[C@@H](NC(=O)N2CCC(n3c(=O)[nH]c4ncccc43)CC2)C1=O ?
6%

----------
experiment: Clearance in dog at 1 mg/kg, po or 0.5 mg/kg, iv; assay type: ADME, organism-based, Canis lupus familiaris; details: in vivo
ASSAY READOUT: clearance (mL/min/kg)
All answers are understood in mL/min/kg, so give the number only.

Which measured clearance value corresponds to O=C(N[C@@H]1CC[C@@H](c2cccc(F)c2F)CN(CC(F)(F)F)C1=O)N1CCC(n2c(=O)[nH]c3ncccc32)CC1 ?
17

----------
molecular target: Calcitonin gene-related peptide type 1 receptor (Homo sapiens); test: Ratio of IC50 for human CL receptor in E10 cells in presence of 50% human serum over IC50 for human CL receptor in E10 cells
Sequence (Q16602 whole entry): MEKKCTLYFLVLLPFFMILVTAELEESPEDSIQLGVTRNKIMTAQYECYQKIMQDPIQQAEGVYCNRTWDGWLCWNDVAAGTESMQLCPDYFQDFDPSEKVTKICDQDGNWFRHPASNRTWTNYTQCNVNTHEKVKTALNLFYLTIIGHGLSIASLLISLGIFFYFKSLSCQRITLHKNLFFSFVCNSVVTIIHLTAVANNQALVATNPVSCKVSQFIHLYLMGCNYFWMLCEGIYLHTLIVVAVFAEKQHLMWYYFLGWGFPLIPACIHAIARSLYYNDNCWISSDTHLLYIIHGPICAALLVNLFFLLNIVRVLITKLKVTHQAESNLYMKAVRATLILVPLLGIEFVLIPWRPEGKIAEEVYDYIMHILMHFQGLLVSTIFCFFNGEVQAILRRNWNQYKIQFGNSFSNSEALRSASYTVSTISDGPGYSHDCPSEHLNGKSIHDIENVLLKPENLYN
ASSAY READOUT: Ratio IC50
Reply: number alone, nothing else.

>  <MOLECULE>
COCCN1C[C@H](c2cccc(F)c2F)CC[C@@H](NC(=O)N2CCC(n3c(=O)[nH]c4ncccc43)CC2)C1=O

>  <SYSTEM TESTED>
Calcitonin gene-related peptide type 1 receptor (Homo sapiens)

>  <Ratio IC50>
1.5

$$$$
>  <MOLECULE>
CN(C)CCN1C[C@H](c2cccc(F)c2F)CC[C@@H](NC(=O)N2CCC(n3c(=O)[nH]c4ncccc43)CC2)C1=O

>  <SYSTEM TESTED>
Calcitonin gene-related peptide type 1 receptor (Homo sapiens)

>  <Ratio IC50>
1

$$$$
>  <MOLECULE>
C[S+]([O-])CCN1C[C@H](c2cccc(F)c2F)CC[C@@H](NC(=O)N2CCC(n3c(=O)[nH]c4ncccc43)CC2)C1=O (stereo partly specified)

>  <SYSTEM TESTED>
Calcitonin gene-related peptide type 1 receptor (Homo sapiens)

>  <Ratio IC50>
1

$$$$

Field: Ratio IC50 (Calcitonin gene-related peptide type 1 receptor (Homo sapiens)). Entry: O=C(N[C@@H]1CC[C@@H](c2cccc(F)c2F)CN(CCF)C1=O)N1CCC(n2c(=O)[nH]c3ncccc32)CC1
2

Field: Ratio IC50 (Calcitonin gene-related peptide type 1 receptor (Homo sapiens)). Entry: O=C1NCC(c2ccccc2F)CC[C@H]1NC(=O)N1CCC(n2c(=O)[nH]c3ncccc32)CC1 (stereo partly specified)
1.7

Field: Ratio IC50 (Calcitonin gene-related peptide type 1 receptor (Homo sapiens)). Entry: CSCCN1C[C@H](c2cccc(F)c2F)CC[C@@H](NC(=O)N2CCC(n3c(=O)[nH]c4ncccc43)CC2)C1=O
4

Field: Ratio IC50 (Calcitonin gene-related peptide type 1 receptor (Homo sapiens)). Entry: CS(=O)(=O)CCN1C[C@H](c2cccc(F)c2F)CC[C@@H](NC(=O)N2CCC(n3c(=O)[nH]c4ncccc43)CC2)C1=O
1

Field: Ratio IC50 (Calcitonin gene-related peptide type 1 receptor (Homo sapiens)). Entry: O=C1NCC(c2ccsc2)CC[C@H]1NC(=O)N1CCC(n2c(=O)[nH]c3ncccc32)CC1 (stereo partly specified)
2.4

Field: Ratio IC50 (Calcitonin gene-related peptide type 1 receptor (Homo sapiens)). Entry: CCN1C[C@H](c2cccc(F)c2F)CC[C@@H](NC(=O)N2CCC(n3c(=O)[nH]c4ncccc43)CC2)C1=O
5

Field: Ratio IC50 (Calcitonin gene-related peptide type 1 receptor (Homo sapiens)). Entry: O=C(N[C@@H]1CC[C@@H](c2cccc(F)c2F)CN(CCO)C1=O)N1CCC(n2c(=O)[nH]c3ncccc32)CC1
1.5

Field: Ratio IC50 (Calcitonin gene-related peptide type 1 receptor (Homo sapiens)). Entry: CC(C)C1CC[C@@H](NC(=O)N2CCC(n3c(=O)[nH]c4ncccc43)CC2)C(=O)NC1 (stereo partly specified)
1.6
